# protocol_text: modulators of CIT2-GFP expression in yeast, confirmation, S. cerevisiae, GFP fusion, cherry picks, mother/daughter gates (AID 2274)
# condition: S. cerevisiae CIT2-GFP strain, flow cytometry, 3 h; measured here: mother cell gate; at 10 µM; stronger effect = higher value
measurement_name: GFP response, % of DMSO (%)
Write the answer as a number in %, unit excluded.

Answered examples (8):
In [3]: df
Out[3]:
                                   compound         measurement_name  unit_string  assay_result
0  CCOC(=O)c1ccc(N=Cc2nc(-c3ccccc3)oc2OC(C)=O)cc1  GFP response, % of DMSO            %          89.5
1              Cc1ccc(C(=O)Sc2cccccc2=O)cc1  GFP response, % of DMSO            %          84.8
2  CCOc1ccc(N2C(=O)C(Cl)=C(Nc3ccccc3O)C2=O)cc1  GFP response, % of DMSO            %          95.6
3  COc1ccccc1C1C2=C(CC(C)(C)CC2=O)N(CC(=O)O)C2=C1C(=O)CC(C)(C)C2  GFP response, % of DMSO            %           107
4    O=C(Cc1ccc(Cl)cc1)NNC(=S)NC(=O)c1cccs1  GFP response, % of DMSO            %           104
5  C/C(=N\NC(=O)c1c(Br)c(C)nn1C)c1cccc(NC(=O)C2CCC2)c1  GFP response, % of DMSO            %          99.1
6   Cc1ccc(Nc2c(-c3ccccn3)nc3ccc(C)cn23)cc1  GFP response, % of DMSO            %          93.3
7    NC(N)=N/N=C/c1ccc(OCc2ccc(Cl)cc2Cl)cc1  GFP response, % of DMSO            %          84.3

Request: Tell me the measured GFP response, % of DMSO of `CCOC(=O)Cn1cc(/C=C/[N+](=O)[O-])c2ccccc21` , please.
Response: 83.7

Request: Tell me the measured GFP response, % of DMSO of `Cc1c(C)c2ccc(OCC(=O)NCCCn3ccnc3)cc2oc1=O` , please.
Response: 101

Request: Tell me the measured GFP response, % of DMSO of `COCCCN(C(=O)c1ccco1)c1nc(-c2cc(OC)ccc2OC)cs1` , please.
Response: 99.3

Request: Tell me the measured GFP response, % of DMSO of `COc1ccc(/C=N/Nc2nc(-c3cccnc3)nc3ccccc23)cc1OC` , please.
Response: 141

Request: Tell me the measured GFP response, % of DMSO of `CCOC(=O)C(=Cc1ccc(F)cc1)C(=O)OCC` , please.
Response: 92.3

Request: Tell me the measured GFP response, % of DMSO of CS(=O)(=O)c1sc(C#N)c2c1C(=O)CC(c1ccccc1)C2 (stereo not given) , please.
Response: 95.7

---

# protocol_text: RPL19A-GFP modulators, yeast TOR pathway, confirmation, cell-based, S. cerevisiae, flow cytometry, cherry picks, mother/daughter gates (AID 2270)
# condition: S. cerevisiae RPL19A-GFP strain, 3 h, measured here: mother cell gate, at 10 µM, stronger effect = lower value, 100 = same GFP as DMSO wells
Recorded measurements of GFP response vs DMSO, one per entry
Write the answer as a number in %, unit excluded.

Answered examples (5):
In [3]: df
Out[3]:
                            chemical_string  unit_string  assay_result
0  CCc1ccc(NC(=O)c2nc(S(=O)(=O)Cc3ccccc3)ncc2Cl)cc1            %          93.8
1  Cc1ccc(/C=C/C(=O)c2ccc([N+](=O)[O-])o2)cc1            %          91.8
2  CCOc1ccc(Nc2ccc(C(=O)O)cc2[N+](=O)[O-])cc1            %           104
3  CSc1ccc(/C=C/C(=O)c2ccc(NC(=O)C(C)C)cc2)cc1            %          99.1
4            Cc1ccc(/C=N/Nc2ncc(Cl)cc2Cl)s1            %          78.2

Request: Tell me the measured GFP response vs DMSO of `Cc1nn(C)c(C)c1N1C(=O)c2cccc3c(Br)ccc(c23)C1=O` , please.
Response: 103

Request: Tell me the measured GFP response vs DMSO of `COc1cc(/C=C2\N=C(c3ccccc3)OC2=O)ccc1OC(C)=O` , please.
Response: 96.3

Request: Tell me the measured GFP response vs DMSO of `Cc1ccc(NC(=O)ON=C2CCCC2)cc1` , please.
Response: 93.5

Request: Tell me the measured GFP response vs DMSO of `COc1cc(OC)cc(-c2nc(-c3ccccc3OC)no2)c1` , please.
Response: 95.6
